Listed here: items and their measured shrunken log2 fold change.
Test system: Escherichia coli TOP10;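 also: peptides expressed intracellularly from a pBAD plasmid library in pooled LB shake-flask culture, induced with 0.3% L-arabinose, DNA abundance read by NGS, three biological replicates, DESeq2 with apeglm shrinkage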
Assay: shrunken log2 fold change of peptide-encoding DNA abundance (4.5 h post-induction vs induction); higher = less antimicrobial activity (less host growth inhibition)
Conditions: time post-induction: 4.5 h; library: site-saturation at positions 5, 18, 19, 20
Returns: the value as a bare number; no unit string appended.

// known answers, use as guide
Challenge: Dear colleague, I am looking for the recorded shrunken log2 fold change of the following sequence: RRIRMRPPRLPRPRPRPFDEPRP
Response given: -0.0062

Challenge: Likewise for RRIRSRPPRLPRPRPRPMRVPRP ?
Response given: 0.691

More entries:
Challenge: Given RRIRCRPPRLPRPRPRPHGQPRP , state its recorded shrunken log2 fold change.
Response given: 0.0389

Challenge: Subsequent entry: RRIRARPPRLPRPRPRPTVVPRP
Response given: 0.238

Challenge: Let us now turn to RRIRSRPPRLPRPRPRPCEHPRP
Response given: 0.135

Challenge: # iterate: RRIRSRPPRLPRPRPRPMMEPRP
Response given: 0.0765

Challenge: Also need RRIRFRPPRLPRPRPRPPEKPRP , thanks.
Response given: 0.078

Challenge: Now try RRIRERPPRLPRPRPRPVFAPRP .
Response given: 0.181

Challenge: Same thing, different sequence: RRIRMRPPRLPRPRPRPNDIPRP
Response given: -0.0213

Challenge: Do the same for RRIRMRPPRLPRPRPRPSQMPRP please
Response given: 0.344

Challenge: Consider next the sequence RRIRNRPPRLPRPRPRPCIAPRP in the same way.
Response given: -0.878

Challenge: One more sequence: RRIRARPPRLPRPRPRPDHKPRP
Response given: -0.312

Challenge: Field entry: RRIRIRPPRLPRPRPRPDYIPRP
Response given: -0.183

Challenge: Field entry: RRIRLRPPRLPRPRPRPCNTPRP
Response given: -0.186

Challenge: Also need RRIRMRPPRLPRPRPRPHCTPRP , thanks.
Response given: -0.147

Challenge: Try RRIRQRPPRLPRPRPRPQEKPRP next.
Response given: 0.0313

Challenge: Now try RRIRYRPPRLPRPRPRPRQFPRP .
Response given: -0.379

Challenge: Lookup RRIRERPPRLPRPRPRPHINPRP
Response given: -0.713

Challenge: // repeat for RRIRWRPPRLPRPRPRPKVFPRP and report
Response given: -0.00123
